Biological target: T1, human C1s (human, UniProt P09871 16-688)
T1 construct: also called hC1s; serum-derived human C1s (CompTech)
T1 sequence: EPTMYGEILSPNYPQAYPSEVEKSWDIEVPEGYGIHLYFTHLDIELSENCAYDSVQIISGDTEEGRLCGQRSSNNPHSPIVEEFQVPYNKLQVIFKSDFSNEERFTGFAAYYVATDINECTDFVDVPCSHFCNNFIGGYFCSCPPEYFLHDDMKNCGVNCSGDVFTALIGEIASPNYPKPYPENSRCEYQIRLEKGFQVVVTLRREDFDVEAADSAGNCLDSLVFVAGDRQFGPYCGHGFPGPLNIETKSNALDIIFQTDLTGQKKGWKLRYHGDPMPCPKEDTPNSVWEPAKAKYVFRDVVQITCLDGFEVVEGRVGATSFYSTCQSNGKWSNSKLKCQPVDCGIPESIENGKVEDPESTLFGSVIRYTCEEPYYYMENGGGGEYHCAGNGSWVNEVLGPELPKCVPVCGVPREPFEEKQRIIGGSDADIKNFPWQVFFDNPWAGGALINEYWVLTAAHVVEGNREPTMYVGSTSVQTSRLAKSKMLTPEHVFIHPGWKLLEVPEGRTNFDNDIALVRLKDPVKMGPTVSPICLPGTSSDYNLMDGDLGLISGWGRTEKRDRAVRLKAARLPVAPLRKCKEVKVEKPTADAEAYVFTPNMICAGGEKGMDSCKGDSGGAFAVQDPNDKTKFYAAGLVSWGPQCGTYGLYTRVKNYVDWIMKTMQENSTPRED
Experiment: SPR, Ab captured; pH 7.4, 1.2 mM Ca
Outcome measure: koff (s⁻¹)
State just the number; it will be interpreted in s⁻¹.

Query: Name the reported koff value associated with the binder C1_IPN92H0288-SG4GK/IPN93L0212-SK1 (antibody, human IgG4 S228P, kappa, name in Kabat numbering, V domains shown, VH = IPN009VH2 with Y59E/K64D/G98K/Y99H (Kabat); also called IPN92H0288/IPN93L0212) VH: EVMLVESGGGLVKPGGSLRLSCAASGFTFSNYAMSWVRQAPGKGLEWVATISSGGSHTYELDSVDGRFTISRDNSKDTLYLQMNSLRAEDTALYYCARLFTKHAMDYWGQGTLVTVSS VL: QIVLTQSPATLSLSPGERATLSCTASSEVSESRLHWYQQKPGKAPKLWIYSTSNLASGVPSRFSGSGSGTDYTLTISSLQPEDFATYYCHQYYRLHPITFGQGTKLEIKR
Reply: 0.00117

Query: For C1_IPN92H0162-SG4GK/IPN93L0024-SK1 (antibody, human IgG4 S228P, kappa, name in Kabat numbering, V domains shown, also called IPN92H0162/IPN93L0024) VH: EVMLVESGGGLVKPGGSLRLSCAASGFTFSNYAMSWVRQAPGKGLEWVATISSGGSHTYKLDSVKGRFTISRDNSKDTLYLQMNSLRAEDTALYYCARLFTGHAMDYWGQGTLVTVSS VL: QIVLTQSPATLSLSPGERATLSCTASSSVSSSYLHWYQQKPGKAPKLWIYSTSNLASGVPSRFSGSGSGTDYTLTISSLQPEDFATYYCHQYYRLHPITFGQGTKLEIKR then?
Reply: 0.000545

Query: Now give it for C1_IPN92H0145-SG4GK/IPN93L0024-SK1 (antibody, human IgG4 S228P, kappa, name in Kabat numbering, V domains shown, also called IPN92H0145/IPN93L0024) VH: EVMLVESGGGLVKPGGSLRLSCAASGFTFSNYAMSWVRQAPGKGLEWVATISSGGSRTYYLDSVKGRFTISRDNSKDTLYLQMNSLRAEDTALYYCARLFTGHAMDYWGQGTLVTVSS VL: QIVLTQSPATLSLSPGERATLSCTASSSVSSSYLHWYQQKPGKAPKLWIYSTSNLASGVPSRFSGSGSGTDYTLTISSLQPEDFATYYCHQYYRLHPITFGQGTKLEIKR too.
Reply: 0.00157

Query: How about C1_IPN92H0188-SG4GK/IPN93L0024-SK1 (antibody, human IgG4 S228P, kappa, name in Kabat numbering, V domains shown, also called IPN92H0188/IPN93L0024) VH: EVMLVESGGGLVKPGGSLRLSCAASGFTFSNYAMSWVRQAPGKGLEWVATISSGGSHTYYLDSVDGRFTISRDNSKDTLYLQMNSLRAEDTALYYCARLFTGHAMDYWGQGTLVTVSS VL: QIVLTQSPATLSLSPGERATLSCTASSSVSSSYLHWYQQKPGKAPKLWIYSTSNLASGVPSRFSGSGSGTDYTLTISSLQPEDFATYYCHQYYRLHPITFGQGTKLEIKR ?
Reply: 0.000551

Query: # repeat for C1_IPN92H0159-SG4GK/IPN93L0024-SK1 (antibody, human IgG4 S228P, kappa, name in Kabat numbering, V domains shown, also called IPN92H0159/IPN93L0024) VH: EVMLVESGGGLVKPGGSLRLSCAASGFTFSNYAMSWVRQAPGKGLEWVATISSGGSHTYDLDSVKGRFTISRDNSKDTLYLQMNSLRAEDTALYYCARLFTGHAMDYWGQGTLVTVSS VL: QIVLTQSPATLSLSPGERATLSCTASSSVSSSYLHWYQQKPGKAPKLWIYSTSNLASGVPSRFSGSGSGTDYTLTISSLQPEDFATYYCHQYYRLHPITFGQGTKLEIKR
Reply: 0.000621
